assay: yeast display, Sf9 membrane polyspecificity reagent, FACS + sequencing; frameworks hold sequencing errors
assayMetric: polyreactivity (PSR sort gate)

[[record]]
residuecodes = "QVQLVESGGGLVQAGGSLRLSCAASGFTFARYAMGWYRQAPGNERELVAAITRRGGSTYYADSVKGRFTISRDNAKDTVYLQMNSLKPEDTAVYYCAADSSSGSDYWGQGTQVTVSS"
assaymetric = "polyreactivity (PSR sort gate)"
val = "high polyreactivity"

[[record]]
residuecodes = "QVQLVESGGGLVQAGGSLRLSCAASGRTFNYNTMGWYRQAPGKERELVAAINKGGTRTYYADSVKGRFTISRDNAKNTVYLQMKSLNPEDTAVYYCAARIGGGSYWGQVTQVTVSS"
assaymetric = "polyreactivity (PSR sort gate)"
val = "high polyreactivity"

[[record]]
residuecodes = "QVQLVESGGGLVQAGGSLRLSCAASGFTLDRYAMGWYRQAPGKERELVAAITQSGVSTYYADSVKGRFTISRDNAKNTVYLQMNSLKPEDTAVYYCNALLRRTDYRYTWGYGYWGQGTQVTVSS"
assaymetric = "polyreactivity (PSR sort gate)"
val = "high polyreactivity"

